# Tested on: S.aureus JS1
# PROTOCOL DESCRIPTION: In vitro antibacterial activity, agar plate dilution method (MIC)
# Type: cell-based
# TEST CONDITIONS: Staphylococcus aureus; S.aureus JS1 (β-Lactamase-producing strain); Mueller Hinton agar, inoculum 10⁶ CFU/ml, 37°C, 16 hours; read-out: Minimum Inhibitory Concentration (MIC: µg/ml)
# Method: The in vitro antibacterial activities of the compounds of the present invention against various microorganisms, were measured by the following agar plate dilution method. One platinum loopfull of each test microorganism incubated overnight in Mueller Hinton broth, was inoculated to Mueller Hinton agar (inoculum size: l0⁶ CFU/ml). Such culture media containing various antibiotics in various concentrations were prepared. […]
log10 of MIC for assorted compounds
Kindly note that the scale is log10 and the underlying MIC is in µg/mL.

Worked examples follow.
# COMPOUND, log10 of MIC
rows = [
    ("C#CCON=C(C(=O)NC1C(=O)N2C(C(=O)[O-])=C(C[n+]3ccc4cc(O)c(O)cc4c3)CS[C@H]12)c1csc(N)n1 (stereo partly drawn)", 1.70),
    ("CC(C)(ON=C(C(=O)NC1C(=O)N2C(C(=O)[O-])=C(C[n+]3ccc4c(O)cccc4c3)CSC12)c1csc(N)n1)C(=O)O (stereo not drawn) [Reference Ex. 4, reference compound]", 2.00),
    ("CON=C(C(=O)NC1C(=O)N2C(C(=O)[O-])=C(C[n+]3ccc4cccc(O)c4c3)CS[C@H]12)c1csc(N)n1 (stereo partly drawn) [Reference Ex. 3, reference compound]", 1.40),
]

Prompt: Form field: reported log10 of MIC of CO/N=C(\C(=O)NC1C(=O)N2C(C(=O)[O-])=C(C[n+]3ccc4cc(OC(C)=O)c(OC(C)=O)cc4c3)CSC12)c1csc(N)n1 (stereo not drawn)
Completion: 1.70

Prompt: Okay, and CON=C(C(=O)NC1C(=O)N2C(C(=O)[O-])=C(C[n+]3ccc4c(O)cccc4c3)CS[C@H]12)c1csc(N)n1 (stereo partly drawn) [Reference Ex. 2, reference compound] ?
Completion: 0.80

Prompt: Okay, and CO/N=C(\C(=O)NC1C(=O)N2C(C(=O)[O-])=C(C[n+]3ccc4cc(O)c(O)cc4c3)CSC12)c1csc(N)n1 (stereo not drawn) ?
Completion: 1.40

Prompt: Okay, and CC(C)ON=C(C(=O)NC1C(=O)N2C(C(=O)[O-])=C(C[n+]3ccc4cc(O)c(O)cc4c3)CS[C@H]12)c1csc(N)n1 (stereo partly drawn) ?
Completion: 1.10

Prompt: Okay, and CC(C)(ON=C(C(=O)NC1C(=O)N2C(C(=O)[O-])=C(C[n+]3ccc4ccccc4c3)CSC12)c1csc(N)n1)C(=O)O (stereo not drawn) [Reference Ex. 1, reference compound] ?
Completion: 1.70

* * *

# Tested on: E.coli GN5482
# PROTOCOL DESCRIPTION: In vitro antibacterial activity, agar plate dilution method (MIC)
# Type: cell-based
# TEST CONDITIONS: Escherichia coli; E.coli GN5482 (β-Lactamase-producing strain); Mueller Hinton agar, inoculum 10⁶ CFU/ml, 37°C, 16 hours; read-out: Minimum Inhibitory Concentration (MIC: µg/ml)
OUTCOME MEASURE: MIC
// return the numeric value with its unit appended

# COMPOUND, OBSERVED RESULT
rows = [
    ("C=CCON=C(C(=O)NC1C(=O)N2C(C(=O)[O-])=C(C[n+]3ccc4cc(O)c(O)cc4c3)CS[C@H]12)c1csc(N)n1 (stereo partly drawn)", "0.39 µg/mL"),
    ("CON=C(C(=O)NC1C(=O)N2C(C(=O)[O-])=C(C[n+]3ccc4cccc(O)c4c3)CS[C@H]12)c1csc(N)n1 (stereo partly drawn) [Reference Ex. 3, reference compound]", "0.39 µg/mL"),
]

Prompt: // map CC(C)(ON=C(C(=O)NC1C(=O)N2C(C(=O)[O-])=C(C[n+]3ccc4c(O)cccc4c3)CSC12)c1csc(N)n1)C(=O)O (stereo not drawn) [Reference Ex. 4, reference compound] to recorded MIC (system: E.coli GN5482)
Completion: 6.25 µg/mL

Prompt: Okay, and CC(C)(ON=C(C(=O)NC1C(=O)N2C(C(=O)[O-])=C(C[n+]3ccc4ccccc4c3)CSC12)c1csc(N)n1)C(=O)O (stereo not drawn) [Reference Ex. 1, reference compound] ?
Completion: 0.78 µg/mL

Prompt: Okay, and CC(C)ON=C(C(=O)NC1C(=O)N2C(C(=O)[O-])=C(C[n+]3ccc4cc(O)c(O)cc4c3)CS[C@H]12)c1csc(N)n1 (stereo partly drawn) ?
Completion: 0.39 µg/mL

Prompt: Okay, and C#CCON=C(C(=O)NC1C(=O)N2C(C(=O)[O-])=C(C[n+]3ccc4cc(O)c(O)cc4c3)CS[C@H]12)c1csc(N)n1 (stereo partly drawn) ?
Completion: 0.78 µg/mL
